Recorded IC50, one value per entry.
Tested on: 293T-HRE-GFP-luc cells
ASSAY DETAILS: Cell-based reporter assay for IC50 determinations (HRE-luciferase, hypoxia)
RECORDED CONDITIONS: 6 h, 6 hrs hypoxia (1% O2), luminescence

Use these answered entries as a reference point.
- CNC(=O)c1cc(Cn2nc(-c3nc(-c4ccc(OC(F)(F)F)cc4)no3)ccc2=O)ccc1F: < 100 nM
- O=c1ccc(-c2nc(-c3ccc(OC(F)(F)F)cc3)no2)nn1Cc1ccnc(N2CCNCC2)c1: < 100 nM
- Cc1ccc(-c2nnc(-c3ccc(OC(F)(F)F)cc3)o2)c(=O)n1Cc1ccnc(N2CCOCC2)c1: 100 to 1000 nM

As a next step, examine the molecule that follows.
# molecule O=c1ccc(-c2nc(-c3ccc(OC(F)(F)F)cc3)no2)cn1Cc1cccc(N2CCCC2)c1 ; its IC50 = < 100 nM

----------
Tested on: 293T-HRE-GFP-luc cells
ASSAY DETAILS: Cell-based reporter assay for IC50 determinations (HRE-luciferase, hypoxia)
RECORDED CONDITIONS: 6 h, 6 hrs hypoxia (1% O2), luminescence
RECORDED METRIC: IC50

Use these answered entries as a reference point.
• CN(C)c1cccc(Cn2cc(-c3nc(-c4ccc(OC(F)(F)F)cc4)no3)ccc2=O)c1 = < 100 nM
• COCCOc1cccc(Cn2cc(-c3noc(-c4ccc(C5(C(F)(F)F)CC5)cc4)n3)ccc2=O)c1 = < 100 nM
• CS(=O)(=O)CCCOc1cccc(Cn2cc(-c3noc(-c4ccc(S(C)(=O)=O)cc4)n3)ccc2=O)c1 = < 100 nM

# compound COCCOc1cccc(Cn2cc(-c3noc(-c4ccc(OC(C)C)cc4)n3)ccc2=O)c1 ; its IC50 = 100 to 1000 nM

----------
Recorded IC50, one value per entry.
Tested on: 293T-HRE-GFP-luc cells
ASSAY DETAILS: Cell-based reporter assay for IC50 determinations (HRE-luciferase, hypoxia)
RECORDED CONDITIONS: 6 h, 6 hrs hypoxia (1% O2), luminescence

# compound O=c1ccc(-c2nc(-c3ccc(OC(F)(F)F)cc3)no2)nn1Cc1ccnc(N2CCOCC2)c1 ; its IC50 = < 100 nM

# compound COCCOc1cccc(Cn2cc(-c3noc(-c4ccc(C(=O)N(C)C)cc4)n3)ccc2=O)c1 ; its IC50 = 100 to 1000 nM

# compound CNc1ncc(-c2nc(-c3ccc(=O)n(Cc4cccc(OCCOC)c4)c3)no2)cn1 ; its IC50 = 100 to 1000 nM
